# measured on: T1, human GIPR (glucose-dependent insulinotropic polypeptide receptor) (human, UniProt P48546 22-466)
# T1 sequence (looked up): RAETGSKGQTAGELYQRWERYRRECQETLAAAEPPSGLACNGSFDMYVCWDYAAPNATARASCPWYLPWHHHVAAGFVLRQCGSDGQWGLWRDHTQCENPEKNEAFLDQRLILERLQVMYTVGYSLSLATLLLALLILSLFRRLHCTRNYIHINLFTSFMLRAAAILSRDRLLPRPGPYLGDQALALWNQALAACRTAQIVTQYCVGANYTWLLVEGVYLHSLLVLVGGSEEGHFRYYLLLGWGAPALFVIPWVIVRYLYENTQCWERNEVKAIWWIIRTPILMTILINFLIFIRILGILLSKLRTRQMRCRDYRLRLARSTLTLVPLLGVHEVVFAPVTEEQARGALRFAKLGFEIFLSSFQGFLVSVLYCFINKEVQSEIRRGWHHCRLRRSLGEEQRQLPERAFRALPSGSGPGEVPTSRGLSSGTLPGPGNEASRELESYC
# test description: cell-based or functional assay
*1 amine or outer side, *2 acyl side, *3 side chain or, on linkers, in order; H or OH if unused. Where no end group is shown, it is not given here. Side-chain parts run from the residue outwards. [ ]: non-standard residue; d: D form. The star is where a group is joined. C18 diacid = O=C(O)CCCCCCCCCCCCCCCCC(=O)*; γGlu = O=C(O)[C@H](CCC(=O)[*:2])N[*:1]; Decanoyl = CCCCCCCCCC(=O)*; AEEA = NCCOCCOCC(=O)O; Aib = CC(C)(N)C(=O)O

[
  {
    "binder": "H[Aib]DGTFISDYSIILDNLAARDFINWLIQTKITK(Decanoyl)-NH2 [Compound 10]",
    "measure unit": "nM",
    "EC50 (nM) GIPR": 0.501
  },
  {
    "binder": "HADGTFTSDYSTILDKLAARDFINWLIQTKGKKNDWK([AEEA-AEEA-γGlu-C18 diacid])HNITQ-OH [Compound 25]",
    "measure unit": "nM",
    "EC50 (nM) GIPR": 0.398
  },
  {
    "binder": "HADGTFTSDYSTILDKK([AEEA-AEEA-γGlu-C18 diacid])AARDFINWLIQTKGKKNDWKHNITQ-OH [Compound 23]",
    "measure unit": "nM",
    "EC50 (nM) GIPR": 7.08
  },
  {
    "binder": "HADGTFTSDYSTILDKLAARDFINWLIQTKGKK([AEEA-AEEA-γGlu-C18 diacid])NDWKHNITQ-OH [Compound 24]",
    "measure unit": "nM",
    "EC50 (nM) GIPR": 0.398
  },
  {
    "binder": "HADGTFTSDYST[Aib]LDK([AEEA-AEEA-γGlu-C18 diacid])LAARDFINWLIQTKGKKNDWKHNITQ-OH [Compound 22]",
    "measure unit": "nM",
    "EC50 (nM) GIPR": 1.12
  }
]

The values you see were collected from patent US20250304644A1.
